Recorded values, source ChEMBL document CHEMBL1201862.

- System: K562
- Test method notes: NCI tumour cell line growth inhibition, 48 h
Active and inactive are the calls of the source. No stated cut-off is given here; in the data, active = GI50 up to about 1.1 µM and inactive = higher.
For each record, write down the corresponding GI50.

Inquiry: Given the compound "O=C(NC(=O)c1cn(CCN(CCO)C(=O)NCCCCCCNC(=O)N(CCO)CCn2cc(C(=O)NC(=O)OCc3ccccc3)c(=O)[nH]c2=O)c(=O)[nH]c1=O)OCc1ccccc1" , write its reported GI50.
Reply text: > 100 µM (inactive)

Inquiry: Return GI50 for the following compound: CN(C)CCC(=O)N1CCc2c([nH]c3ccccc23)C1c1cccnc1 (stereo not given)
Reply text: > 100 µM (inactive)

Inquiry: Output measured GI50 for this item: "CN(C)CCCN=C(N)N"
Reply text: > 100 µM (inactive)

Inquiry: Identify measured GI50 associated with "Cc1c(Cl)cccc1NC(=O)c1cccc([N+](=O)[O-])c1O"
Reply text: 17.3 µM (inactive)

Inquiry: Return value of GI50 for input C=C1C(=O)O[C@H](c2ccoc2)C[C@@H]1[C@@]1(C)CCCC2(C)C(=O)OCC21 (stereo not given in full) , no commentary.
Reply text: > 100 µM (inactive)
